Target: NS3/NS4 complexes (Hepatitis C virus genotype 1a, UniProt P27958)
Sequence (P27958 1027-1657): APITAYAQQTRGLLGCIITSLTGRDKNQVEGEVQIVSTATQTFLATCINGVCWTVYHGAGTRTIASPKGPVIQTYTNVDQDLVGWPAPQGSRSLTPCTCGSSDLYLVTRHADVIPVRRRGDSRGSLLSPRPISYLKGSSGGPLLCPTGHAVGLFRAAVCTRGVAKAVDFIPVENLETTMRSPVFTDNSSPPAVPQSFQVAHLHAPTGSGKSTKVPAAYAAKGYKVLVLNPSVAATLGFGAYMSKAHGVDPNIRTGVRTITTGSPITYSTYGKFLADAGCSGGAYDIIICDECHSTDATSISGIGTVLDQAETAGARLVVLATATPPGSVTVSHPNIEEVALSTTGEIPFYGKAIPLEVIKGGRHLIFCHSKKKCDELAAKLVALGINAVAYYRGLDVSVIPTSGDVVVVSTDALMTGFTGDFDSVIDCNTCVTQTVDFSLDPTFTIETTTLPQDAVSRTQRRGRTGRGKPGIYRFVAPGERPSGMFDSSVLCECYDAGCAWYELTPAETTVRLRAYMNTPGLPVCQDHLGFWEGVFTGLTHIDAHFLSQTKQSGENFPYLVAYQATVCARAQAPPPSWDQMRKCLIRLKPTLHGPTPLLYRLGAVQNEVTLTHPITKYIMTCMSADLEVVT
Sequence (P27958 1658-1711): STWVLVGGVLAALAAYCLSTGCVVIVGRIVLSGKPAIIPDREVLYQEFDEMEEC
Test: NS3/NS4 inhibition activity (IC50)
Assay type: biochemical
Settings: Table 3, read-out: IC50
pIC50: −log10 of the molar value.
measuredQuantity: pIC50

Would you mind telling me what pIC50 value was observed for CO[C@@H]1C[C@H]2C(=O)N[C@]3(C(=O)NS(=O)(=O)CC(=O)Nc4ccccc4)C[C@H]3/C=C\CCCCC[C@H](NC(=O)OC(C)(C)C)C(=O)N2C1 [Compound 1099] ?
> 8.00

Need pIC50 of CC1(S(=O)(=O)NC(=O)[C@@]23C[C@H]2/C=C\CCCCC[C@H](Nc2cc(F)cc(C(F)(F)F)c2)C(=O)N2C[C@H](OC(=O)N4Cc5cccc(F)c5C4)C[C@H]2C(=O)N3)CC1 [Compound 1100] , thanks.
> 8.00

Could you tell me which pIC50 is on file for CC(C)(C)OC(=O)N[C@H]1CCCCC/C=C\[C@@H]2C[C@@]2(C(=O)NCCC(=O)NCc2ccccc2)NC(=O)[C@@H]2C[C@@H](O)CN2C1=O [Compound 1058] ?
< 7.00

All figures here come from patent US8048862B2.
